# Organism: Rattus norvegicus
# test protocol: Ability to inhibit rat adenylate kinase II, activity expressed as Maximum velocity
# Assay type: ADME
Entries and their measured Vmax follow.
Give just the numeric value; % need not be written.

Here's what some known entries look like.
stdin: Query Vmax for O=C(CI)NCCCCCNc1ncnc2c1ncn2[C@@H]1O[C@H](COP(=O)(O)OP(=O)(O)OP(=O)(O)O)[C@@H](O)[C@H]1O
stdout: 21

stdin: Query Vmax for CN(CCCCCCN(C)c1ncnc2c1ncn2[C@@H]1O[C@H](COP(=O)(O)OP(=O)(O)OP(=O)(O)O)[C@@H](O)[C@H]1O)C(=O)CCCCCCNC(=O)CI
stdout: 0

stdin: Query Vmax for Nc1ncnc2c1ncn2[C@@H]1O[C@H](COP(=O)(O)OP(=O)(O)OP(=O)(O)O)[C@@H](O)[C@H]1O [ADENOSINE TRIPHOSPHATE]
stdout: 100

stdin: Query Vmax for O=C(CI)NCCNc1ncnc2c1ncn2[C@@H]1O[C@H](COP(=O)(O)OP(=O)(O)OP(=O)(O)O)[C@@H](O)[C@H]1O
stdout: 5

stdin: Query Vmax for CN(CCCCN(C)c1ncnc2c1ncn2[C@@H]1O[C@H](COP(=O)(O)OP(=O)(O)OP(=O)(O)O)[C@@H](O)[C@H]1O)C(=O)CCCCCCNC(=O)CI
stdout: 0

stdin: Query Vmax for O=C(CI)NCCCCCCCCNc1ncnc2c1ncn2[C@@H]1O[C@H](COP(=O)(O)OP(=O)(O)OP(=O)(O)O)[C@@H](O)[C@H]1O
stdout: 5

Next:
stdin: Query Vmax for CN(CCCCCCN(C)c1ncnc2c1ncn2[C@@H]1O[C@H](COP(=O)(O)OP(=O)(O)OP(=O)(O)O)[C@@H](O)[C@H]1O)C(=O)CCCCCNC(=O)CI
stdout: 0

###

# Species: Rattus norvegicus
# test protocol: Ability to inhibit rat adenylate kinase III, activity expressed as half-maximal velocity
# Assay type: ADME
endpoint label: Km (µM)
Give just the numeric value; µM need not be written.

Here's what some known entries look like.
stdin: Query Km for Nc1ncnc2c1ncn2[C@@H]1O[C@H](COP(=O)(O)OP(=O)(O)OP(=O)(O)O)[C@@H](O)[C@H]1O [ADENOSINE TRIPHOSPHATE]
stdout: 90

stdin: Query Km for O=C(CI)NCCCCCCCCNc1ncnc2c1ncn2[C@@H]1O[C@H](COP(=O)(O)OP(=O)(O)OP(=O)(O)O)[C@@H](O)[C@H]1O
stdout: 1100

stdin: Query Km for O=C(CI)NCCNc1ncnc2c1ncn2[C@@H]1O[C@H](COP(=O)(O)OP(=O)(O)OP(=O)(O)O)[C@@H](O)[C@H]1O
stdout: 400

Next:
stdin: Query Km for O=C(CI)NCCCCCNc1ncnc2c1ncn2[C@@H]1O[C@H](COP(=O)(O)OP(=O)(O)OP(=O)(O)O)[C@@H](O)[C@H]1O
stdout: 400

###

Entries and their measured Km follow.
# Species: Rattus norvegicus
# test protocol: Ability to inhibit rat adenylate kinase II, activity expressed as half-maximal velocity
# Type: ADME
# applied conditions: in vitro
Give just the numeric value; µM need not be written.

Here's what some known entries look like.
stdin: Query Km for Nc1ncnc2c1ncn2[C@@H]1O[C@H](COP(=O)(O)OP(=O)(O)OP(=O)(O)O)[C@@H](O)[C@H]1O [ADENOSINE TRIPHOSPHATE]
stdout: 90

stdin: Query Km for O=C(CI)NCCCCCCCCNc1ncnc2c1ncn2[C@@H]1O[C@H](COP(=O)(O)OP(=O)(O)OP(=O)(O)O)[C@@H](O)[C@H]1O
stdout: 400

stdin: Query Km for O=C(CI)NCCCCCNc1ncnc2c1ncn2[C@@H]1O[C@H](COP(=O)(O)OP(=O)(O)OP(=O)(O)O)[C@@H](O)[C@H]1O
stdout: 1000

Shift focus to the following entry.
stdin: Query Km for O=C(CI)NCCNc1ncnc2c1ncn2[C@@H]1O[C@H](COP(=O)(O)OP(=O)(O)OP(=O)(O)O)[C@@H](O)[C@H]1O
stdout: 1600

###

# target under test: GTP:AMP phosphotransferase AK3, mitochondrial (Rattus norvegicus, UniProt P29411)
# Sequence (P29411 whole entry): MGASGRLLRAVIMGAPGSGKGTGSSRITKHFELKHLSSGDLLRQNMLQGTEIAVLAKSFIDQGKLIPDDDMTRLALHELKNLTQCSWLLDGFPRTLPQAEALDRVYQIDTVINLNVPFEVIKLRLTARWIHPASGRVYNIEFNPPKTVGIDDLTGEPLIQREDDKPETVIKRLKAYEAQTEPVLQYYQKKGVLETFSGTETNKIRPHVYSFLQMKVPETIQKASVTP
# test protocol: Ability to inhibit rat adenylate kinase III, activity expressed as Inhibition constant
endpoint label: Ki (mM)
Give just the numeric value; mM need not be written.

stdin: Query Ki for O=C(CI)NCCNc1ncnc2c1ncn2[C@@H]1O[C@H](COP(=O)(O)OP(=O)(O)OP(=O)(O)O)[C@@H](O)[C@H]1O
stdout: 5.9

###

# target under test: GTP:AMP phosphotransferase AK3, mitochondrial (Rattus norvegicus, UniProt P29411)
# test protocol: Ability to inhibit rat adenylate kinase III, activity expressed as Inhibition constant; Competitive inhibition
endpoint label: pKi
Answer as the number alone; pKi is minus log10 of concentration in mol/L.

Here's what some known entries look like.
stdin: Query pKi for CN(CCCCCCN(C)c1ncnc2c1ncn2[C@@H]1O[C@H](COP(=O)(O)OP(=O)(O)OP(=O)(O)O)[C@@H](O)[C@H]1O)C(=O)CCCCCCNC(=O)CI
stdout: 2.66

stdin: Query pKi for CN(CCCCCCN(C)c1ncnc2c1ncn2[C@@H]1O[C@H](COP(=O)(O)OP(=O)(O)OP(=O)(O)O)[C@@H](O)[C@H]1O)C(=O)CCCCCNC(=O)CI
stdout: 2.62

stdin: Query pKi for CN(CCCCN(C)c1ncnc2c1ncn2[C@@H]1O[C@H](COP(=O)(O)OP(=O)(O)OP(=O)(O)O)[C@@H](O)[C@H]1O)C(=O)CCCCCCNC(=O)CI
stdout: 2.68

Shift focus to the following entry.
stdin: Query pKi for O=C(CI)NCCCCCNc1ncnc2c1ncn2[C@@H]1O[C@H](COP(=O)(O)OP(=O)(O)OP(=O)(O)O)[C@@H](O)[C@H]1O
stdout: 2.21

###

Entries and their measured Vmax follow.
# Species on record: Rattus norvegicus
# test protocol: Ability to inhibit rat adenylate kinase III, activity expressed as Maximum velocity
# Assay type: ADME
# applied conditions: in vitro
Give just the numeric value; % need not be written.

stdin: Query Vmax for O=C(CI)NCCNc1ncnc2c1ncn2[C@@H]1O[C@H](COP(=O)(O)OP(=O)(O)OP(=O)(O)O)[C@@H](O)[C@H]1O
stdout: 2

stdin: Query Vmax for CN(CCCCN(C)c1ncnc2c1ncn2[C@@H]1O[C@H](COP(=O)(O)OP(=O)(O)OP(=O)(O)O)[C@@H](O)[C@H]1O)C(=O)CCCCCCNC(=O)CI
stdout: 0

stdin: Query Vmax for O=C(CI)NCCCCCNc1ncnc2c1ncn2[C@@H]1O[C@H](COP(=O)(O)OP(=O)(O)OP(=O)(O)O)[C@@H](O)[C@H]1O
stdout: 9

stdin: Query Vmax for CN(CCCCCCN(C)c1ncnc2c1ncn2[C@@H]1O[C@H](COP(=O)(O)OP(=O)(O)OP(=O)(O)O)[C@@H](O)[C@H]1O)C(=O)CCCCCCNC(=O)CI
stdout: 0

stdin: Query Vmax for CN(CCCCCCN(C)c1ncnc2c1ncn2[C@@H]1O[C@H](COP(=O)(O)OP(=O)(O)OP(=O)(O)O)[C@@H](O)[C@H]1O)C(=O)CCCCCNC(=O)CI
stdout: 0

stdin: Query Vmax for Nc1ncnc2c1ncn2[C@@H]1O[C@H](COP(=O)(O)OP(=O)(O)OP(=O)(O)O)[C@@H](O)[C@H]1O [ADENOSINE TRIPHOSPHATE]
stdout: 100

Next:
stdin: Query Vmax for O=C(CI)NCCCCCCCCNc1ncnc2c1ncn2[C@@H]1O[C@H](COP(=O)(O)OP(=O)(O)OP(=O)(O)O)[C@@H](O)[C@H]1O
stdout: 6

The origin of these recorded values is ChEMBL document CHEMBL1122037.
